- System: TK-10
- TEST: NCI tumour cell line growth inhibition, 48 h
Active and inactive are the calls of the source. Cut-off read from the data, not from the text of the source: active = GI50 up to about 1.1 µM and inactive = higher.
Provide the recorded GI50 for the entries that follow.

Recorded result, CC(=O)NNc1nc(C)c(C(=O)/C=C/c2ccccc2Cl)s1 , GI50: > 100 µM (inactive)

Recorded result, O=C1c2ccccc2C2=Nc3ccncc3CN12 , GI50: > 100 µM (inactive)

Recorded result, CCOC(=O)c1cc2c(OCc3ccccc3)c(OC)cc3c2c(n1)N(c1ccc(OC)cc1)C(C)C3 (stereo unspecified) , GI50: > 50 µM (inactive)

Recorded result, CCOC(=O)c1ccc(/N=C2\S/C(=C\C(=S)Nc3ccccc3)N(c3ccccc3)\C2=N/c2ccc(C(=O)OCC)cc2)cc1 , GI50: > 100 µM (inactive)

Recorded result, CC(C)C(C(=O)O)N1C(=O)c2ccccc2C1=O (stereo unspecified) , GI50: > 100 µM (inactive)

Recorded result, COc1ccc(OC)c2c1C(=O)C1CC1(Br)C2=O (stereo unspecified) , GI50: > 100 µM (inactive)

Recorded result, OCCN(CCO)c1cccc(N(CCO)CCO)c1 , GI50: > 100 µM (inactive)

Recorded result, NC(=O)N/N=C\CC(O)(C(F)(F)Cl)C(F)(F)Cl , GI50: > 10 µM (inactive)

Recorded result, CNC/C(Cl)=N/S(=O)(=O)c1ccc(C)cc1 , GI50: 12.7 µM (inactive)

Recorded result, CC1Nc2ccccc2NC1C=C(C#N)C#N (stereo unspecified) , GI50: 19.6 µM (inactive)

Recorded result, Cc1c2cc[n+](C)cc2c(C)c2c1[nH]c1ccc(OC(C)C)cc12 , GI50: 19.8 µM (inactive)

---

Provide the recorded GI50 for the entries that follow.
- Tested on: SK-MEL-2
- TEST: NCI tumour cell line growth inhibition, 48 h
Active and inactive are the calls of the source. Rule as the data show it: active = GI50 up to about 1.1 µM and inactive = higher.

Recorded result, NC(CCCCN/C=C1/N=C(c2ccccc2)OC1=O)C(=O)O (stereo not given) , GI50: > 100 µM (inactive)

Recorded result, COc1cc(/N=N\c2ccc(OC)c(S(=O)(=O)O)c2)c(C)cc1/N=N\c1ccc(/C=C/c2ccc(/N=[N+](/[O-])c3ccc(/C=C/c4ccc(/N=N/c5cc(C)c(/N=N\c6ccc(OC)c(S(=O)(=O)O)c6)cc5OC)cc4S(=O)(=O)O)c(S(=O)(=O)O)c3)cc2S(=O)(=O)O)c(S(=O)(=O)O)c1 , GI50: > 100 µM (inactive)

Recorded result, COc1cccc(/C=C/c2ccnc3ccccc23)c1OC , GI50: > 10 µM (inactive)

Recorded result, CC(C)(CN1CCCCC1)C(/C=C/c1ccccc1)=N\NC(=O)N/N=C(/C=C/c1ccccc1)C(C)(C)CN1CCCCC1 , GI50: 2.01 µM (inactive)

Recorded result, COc1ccc(OC)c(NC(=O)C(=O)NNC(=O)c2sc(NNC(C)=O)nc2C)c1 , GI50: 43 µM (inactive)

---

- Tested on: ACHN
- TEST: NCI tumour cell line growth inhibition, 48 h
The source made the active and inactive calls. No stated cut-off is given here; in the data, active = GI50 up to about 1.1 µM and inactive = higher.
A correct response names exactly one class from true = active, false = inactive

// query Hey, what did the test say about NC(=O)c1nnsc1NN=O ?
// result false

// query Hey, what did the test say about C=CCSSCC=C ?
// result false

// query Hey, what did the test say about COc1cc2c3c(c4cc(OC)c(OC)cc4c2cc1OC)[C@H](O)[C@@H]1CCCN1C3 ?
// result true

// query Hey, what did the test say about COC1OC(Cn2cc([N+](=O)[O-])nc2C)C(O)C(O)C1O (configuration not stated) ?
// result false

// query Hey, what did the test say about CC(C)c1cccc(C(C)C)c1NC(=O)C(=O)Cc1nc2ccc([N+](=O)[O-])cc2nc1O ?
// result false

// query Hey, what did the test say about COc1cccc(/C=C/c2ccnc3ccccc23)c1OC ?
// result false

// query Hey, what did the test say about Cc1sc2nc3n(c(=O)c2c1C)N=CN(c1ccc(Cl)cc1)C3 ?
// result false

// query Hey, what did the test say about CCOC(=O)/C=C/C(Br)=C(Br)/C=C/C(=O)OCC ?
// result false

// query Hey, what did the test say about COC(=O)NC(=O)c1cn(C2OC(CO)C(O)C2O)c(=O)[nH]c1=O (configuration not stated) ?
// result false

// query Hey, what did the test say about Cc1nc2c3c(ncn2n1)Oc1c(c(-c2ccccc2)nn1-c1ccccc1)C3c1ccc(Cl)cc1 (configuration not stated) ?
// result false

// query Hey, what did the test say about CCCCC1CC(c2ccc(Cl)cc2)=NO1 (configuration not stated) ?
// result false

// query Hey, what did the test say about Cc1ccc(NC(=O)CC2SC(Nc3cccc(Cl)c3C)=NC2=O)cc1 (configuration not stated) ?
// result false

// query Hey, what did the test say about CCCCCCCCCc1cc(=O)c2ccc(OCc3ccccc3)cc2o1 ?
// result false

// query Hey, what did the test say about Cc1ccc(N(C(=O)Nc2ccc(F)c(Cl)c2)C2=NCC(C)S2)cc1 (configuration not stated) ?
// result false

// query Hey, what did the test say about C/C=C1\CNC1C(=O)O (configuration not stated) ?
// result false

// query Hey, what did the test say about CN(C)C(=C1c2cc([N+](=O)[O-])ccc2-c2ccc([N+](=O)[O-])cc21)N(C)C ?
// result false

// query Hey, what did the test say about CN(C)Cc1cc(C(=O)/C=C/c2c(F)cccc2Cl)cc(CN(C)C)c1O ?
// result false

// query Hey, what did the test say about CCCC(=O)OC(OC(=O)CCC)c1ccc([N+](=O)[O-])o1 ?
// result false

// query Hey, what did the test say about COc1ccc(CCc2cc(OC)c(O)c(OC)c2)cc1 ?
// result false

// query Hey, what did the test say about COc1cc(C2c3cc4c(cc3OC(O)C2C)OCO4)cc(OC)c1OC (configuration not stated) ?
// result true

// query Hey, what did the test say about Cc1ccc2nc3c(C)cc(=O)cc-3sc2c1 ?
// result false

// query Hey, what did the test say about CC#CC1C2CCCC1(CSc1ccccc1)NC(=O)O2 (configuration not stated) ?
// result false

// query Hey, what did the test say about O=C(CC1(O)CCCCC1)OC1CCCC1 ?
// result false

// query Hey, what did the test say about CC(C)C(C(=O)O)N1C(=O)c2ccccc2C1=O (configuration not stated) ?
// result false

// query Hey, what did the test say about NC(=O)c1ncn(C2OC(CO)C(O)C2O)c1O (configuration not stated) ?
// result false

// query Hey, what did the test say about COC(=O)/C=c1/c2ccccc2n2c1c1ccccc1[n+]2C ?
// result false

// query Hey, what did the test say about COC(=O)[C@H]1C=C[C@H](OC2OC(COC(C)=O)C(OC(C)=O)C(OC(C)=O)C2OC(C)=O)n2c(=O)n(-c3ccccc3)c(=O)n21 (some centres not stated) ?
// result false

---

- Test system: UACC-257
- TEST: NCI tumour cell line growth inhibition, 48 h
The source made the active and inactive calls. No stated cut-off is given here; in the data, active = GI50 up to about 1.1 µM and inactive = higher.
QUANTITY KIND: GI50

Recorded result, CC1(CCCO)CCCCCC(C)(CCCO)C1=O (centres undefined) , GI50: > 100 µM (inactive)

Recorded result, O=C1C(c2ccccc2)=C(c2ccccc2)C(c2ccc(Cc3ccc(C4=C(c5ccccc5)C(=O)C(c5ccccc5)=C4c4ccccc4)cc3)cc2)=C1c1ccccc1 , GI50: 64.9 µM (inactive)

Recorded result, Oc1cn(-c2ccc(Cl)cc2)nc1-c1nnc(Nc2ccccc2)o1 , GI50: 21.3 µM (inactive)

Recorded result, COc1cc(/C=C2\C[C@H]3[C@@H]4CC=C5C=C(N6CCCC6)CC[C@]5(C)[C@H]4CC[C@]3(C)C2=O)cc(OC)c1OC , GI50: 3.1 µM (inactive)

Recorded result, Cc1ncc([N+](=O)[O-])n1CCNC(=O)CCC(=O)NCCCn1ccnc1[N+](=O)[O-] , GI50: > 100 µM (inactive)

Recorded result, CCOC(=O)C1=COC(C)(CCc2ccccc2)CC1=O (centres undefined) , GI50: > 100 µM (inactive)

Recorded result, CCOc1ccc2nc(NC(=O)/C(CC(=O)CC(C3=C(O)c4ccccc4CC3=O)c3ccccc3)=N\O)sc2c1 (centres undefined) , GI50: > 100 µM (inactive)

Recorded result, O=C(O)[C@H]1NC[C@@H]2ON=C(Br)[C@@H]21 , GI50: > 100 µM (inactive)

Recorded result, COc1c(C)c(C/C=C(\C)CCCCO)c(OC)c2ccccc12 , GI50: 33.8 µM (inactive)

---

Provide the recorded GI50 for the entries that follow.
- Tested on: Malme-3M
- TEST: NCI tumour cell line growth inhibition, 48 h
Active and inactive are the calls of the source. No stated cut-off is given here; in the data, active = GI50 up to about 1.1 µM and inactive = higher.

Recorded result, CCN(CC)C(=S)N/N=C(\C)c1ccccc1O , GI50: 26.4 µM (inactive)

Recorded result, N=C(N)SCCCN , GI50: 8.77 µM (inactive)

Recorded result, Cc1nc(N)sc1/N=N/c1cc(Cl)c([N+](=O)[O-])cc1Cl , GI50: 12 µM (inactive)

Recorded result, O=C1c2ccc3ccccc3c2CCC1N1CCCCC1 (stereo not drawn) , GI50: 17.6 µM (inactive)

Recorded result, CCCCCCCCCCCCOC(=N)N1CCOCC1 , GI50: 19 µM (inactive)

Recorded result, O=C1CC(C(CC(=O)c2ccccc2)c2ccccc2)C(=O)c2ccccc2N1 (stereo not drawn) , GI50: 28.4 µM (inactive)

Recorded result, C=C1C(=O)CCC1C(=O)O (stereo not drawn) , GI50: > 100 µM (inactive)

Recorded result, C/C(=N\NC(=N)N)C(CN(CC(C)C)CC(C)C)C(=O)Nc1ccc(C)cc1C (stereo not drawn) , GI50: > 100 µM (inactive)

Recorded result, N#Cc1[nH]c(=O)n(-c2ccc([N+](=O)[O-])cc2)c1N , GI50: > 10 µM (inactive)

Recorded result, O=[N+]([O-])C(/C=C(\Cl)[N+](=O)[O-])=C(Nc1ccccc1)Nc1ccccc1 , GI50: 8.67 µM (inactive)

Recorded result, CC#CC1C2CCCC1(CSc1ccccc1)NC(=O)O2 (stereo not drawn) , GI50: > 100 µM (inactive)

Recorded result, COc1ccc(Nc2c[nH]c(=O)[nH]c2=O)cc1 , GI50: > 100 µM (inactive)

Recorded result, COc1ccc2cc(NC(=O)N/N=C\c3ccc(Cl)cc3)ccc2c1 , GI50: 34 µM (inactive)

src = ChEMBL document CHEMBL1201862
